Target: T1, human CD200R1 expressed on cells (Jurkat-CD200R1, U937-CD200R1, HH cells) (human, UniProt Q8TD46 25-348)
T1 construct: whole, on cells; also called HH (CRL-2105); cell surface-expressed CD200R1
T1 sequence (looked up): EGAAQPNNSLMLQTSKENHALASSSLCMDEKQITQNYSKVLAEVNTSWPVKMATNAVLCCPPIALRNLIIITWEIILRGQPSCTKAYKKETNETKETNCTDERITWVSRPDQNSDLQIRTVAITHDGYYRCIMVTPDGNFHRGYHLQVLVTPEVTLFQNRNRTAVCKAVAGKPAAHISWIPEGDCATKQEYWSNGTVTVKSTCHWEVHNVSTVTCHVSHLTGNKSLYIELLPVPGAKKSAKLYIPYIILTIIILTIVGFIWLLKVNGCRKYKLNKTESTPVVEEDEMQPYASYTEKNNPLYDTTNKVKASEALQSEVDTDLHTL
Experiment: flow cytometry, HH cells; drawn table

# BINDER, Geo mean (%) at 0.05 nM
data = [
    ("P001018 scFv mutant L3-L94S (scFv) scFv: QVQLVQSGAEVKKPGASVKVSCKASGYTFTSYVMHWVRQAPGQGLEWMGYINPYNDDTNYNEKFKGRVTMTRDTSTSTVYMELSSLRSEDTAVYYCAREDYYGSRWGYWGQGTLVTVSSGGGGSGGGGSGGGGSDIVLTQSPASLAVSPGQRATITCRASKSVSTSGYSYMHWYQQKPGQPPKLLIYLASNLESGVPARFSGSGSGTDFTLTINPVEANDTANYYCQHSRESLTFGQGTKVEIK", 1.8),
    ("P001018 (huOX108.1) (antibody, V domains shown, also called humanized antibody P001018) VH: QVQLVQSGAEVKKPGASVKVSCKASGYTFTSYVMHWVRQAPGQGLEWMGYINPYNDDTNYNEKFKGRVTMTRDTSTSTVYMELSSLRSEDTAVYYCAREDYYGSRWGYWGQGTLVTVSS VL: DIVLTQSPASLAVSPGQRATITCRASKSVSTSGYSYMHWYQQKPGQPPKLLIYLASNLESGVPARFSGSGSGTDFTLTINPVEANDTANYYCQHSRELLTFGQGTKVEIK", 2.1),
    ("P001018 scFv mutant H3-Y102T (scFv) scFv: QVQLVQSGAEVKKPGASVKVSCKASGYTFTSYVMHWVRQAPGQGLEWMGYINPYNDDTNYNEKFKGRVTMTRDTSTSTVYMELSSLRSEDTAVYYCAREDYYGSRWGTWGQGTLVTVSSGGGGSGGGGSGGGGSDIVLTQSPASLAVSPGQRATITCRASKSVSTSGYSYMHWYQQKPGQPPKLLIYLASNLESGVPARFSGSGSGTDFTLTINPVEANDTANYYCQHSRELLTFGQGTKVEIK", 2),
    ("P001018 scFv mutant L3-L95D (scFv) scFv: QVQLVQSGAEVKKPGASVKVSCKASGYTFTSYVMHWVRQAPGQGLEWMGYINPYNDDTNYNEKFKGRVTMTRDTSTSTVYMELSSLRSEDTAVYYCAREDYYGSRWGYWGQGTLVTVSSGGGGSGGGGSGGGGSDIVLTQSPASLAVSPGQRATITCRASKSVSTSGYSYMHWYQQKPGQPPKLLIYLASNLESGVPARFSGSGSGTDFTLTINPVEANDTANYYCQHSRELDTFGQGTKVEIK", 2),
    ("P001018 scFv mutant L3-T96R (scFv) scFv: QVQLVQSGAEVKKPGASVKVSCKASGYTFTSYVMHWVRQAPGQGLEWMGYINPYNDDTNYNEKFKGRVTMTRDTSTSTVYMELSSLRSEDTAVYYCAREDYYGSRWGYWGQGTLVTVSSGGGGSGGGGSGGGGSDIVLTQSPASLAVSPGQRATITCRASKSVSTSGYSYMHWYQQKPGQPPKLLIYLASNLESGVPARFSGSGSGTDFTLTINPVEANDTANYYCQHSRELLRFGQGTKVEIK", 2.7),
]

// provenance: patent US20260263521A1
